Molecular target: Histone deacetylase HD1B (Zea mays, UniProt Q9ZTP8)
Sequence (Q9ZTP8 whole entry): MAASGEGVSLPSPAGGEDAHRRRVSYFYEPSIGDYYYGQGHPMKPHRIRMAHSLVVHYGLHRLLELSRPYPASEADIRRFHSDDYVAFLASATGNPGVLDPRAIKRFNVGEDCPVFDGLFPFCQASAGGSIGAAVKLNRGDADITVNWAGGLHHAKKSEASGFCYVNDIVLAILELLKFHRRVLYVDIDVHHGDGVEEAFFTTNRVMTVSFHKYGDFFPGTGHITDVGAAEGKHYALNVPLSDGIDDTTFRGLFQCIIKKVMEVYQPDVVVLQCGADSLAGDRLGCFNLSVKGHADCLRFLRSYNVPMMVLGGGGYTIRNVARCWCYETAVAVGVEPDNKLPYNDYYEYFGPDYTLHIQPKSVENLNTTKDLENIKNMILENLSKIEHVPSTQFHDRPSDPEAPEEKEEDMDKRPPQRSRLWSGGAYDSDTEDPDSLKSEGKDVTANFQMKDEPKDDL
Experiment: Inhibition of maize histone deacetylase 1B
Details: read-out: IC50
pIC50: −log10 of the molar value.
EXPERIMENTAL READOUT: pIC50

Sample answers from the record:
Would you mind telling me what pIC50 value was observed for COc1cccc(C(=O)/C=C/c2cc(/C=C/C(=O)NO)n(C)c2)c1 ?
6.22

Would you mind telling me what pIC50 value was observed for COc1ccc(C(=O)/C=C/c2cc(/C=C/C(=O)NO)n(C)c2)cc1 ?
6.10

Would you mind telling me what pIC50 value was observed for Cn1cc(/C=C/C(=O)c2cccc(Br)c2)cc1/C=C/C(=O)NO ?
6.32

Would you mind telling me what pIC50 value was observed for Cc1cccc(C(=O)/C=C/c2cc(/C=C/C(=O)NO)n(C)c2)c1 ?
5.60

Would you mind telling me what pIC50 value was observed for Cn1cc(/C=C/C(=O)c2ccc(F)c(Cl)c2)cc1/C=C/C(=O)NO ?
5.85

Would you mind telling me what pIC50 value was observed for Cn1cc(/C=C/C(=O)c2ccc3c(c2)OCCO3)cc1/C=C/C(=O)NO ?
6.21

Would you mind telling me what pIC50 value was observed for Cn1cc(/C=C/C(=O)c2ccc(Cl)c(Cl)c2)cc1/C=C/C(=O)NO ?
4.67

Would you mind telling me what pIC50 value was observed for Cn1cc(/C=C/C(=O)c2ccc3ccccc3c2)cc1/C=C/C(=O)NO ?
5.74

I: Cn1cc(/C=C/C(=O)c2cccc(OC(F)(F)F)c2)cc1/C=C/C(=O)NO
II: Cn1cc(/C=C/C(=O)c2ccccc2Cl)cc1/C=C/C(=O)NO
III: Cn1cc(/C=C/C(=O)c2cccc(C(F)(F)F)c2)cc1/C=C/C(=O)NO
IV: Cn1cc(/C=C/C(=O)c2cccs2)cc1/C=C/C(=O)NO
Put these in order: smallest pIC50 first, largest last. # the answer lists labels in the order requested
I, III, IV, II
(I: 3.53, III: 3.80, IV: 4.59, II: 5.80)

---

System: Zea mays
Test: Selectivity for IC50 of maize histone deacetylase 1A over IC50 of maize histone deacetylase 1B
EXPERIMENTAL READOUT: Ratio IC50

Sample answers from the record:
Give Ratio IC50 (Zea mays) of the following molecule: Cn1cc(/C=C/C(=O)c2ccc(F)c(Cl)c2)cc1/C=C/C(=O)NO
2.8

Give Ratio IC50 (Zea mays) of the following molecule: Cn1cc(/C=C/C(=O)c2cccc(Cl)c2)cc1/C=C/C(=O)NO
71.4

1: Cn1cc(/C=C/C(=O)c2ccc(Cl)cc2Cl)cc1/C=C/C(=O)NO
2: Cn1cc(/C=C/C(=O)c2cccc(OC(F)(F)F)c2)cc1/C=C/C(=O)NO
Which value of Ratio IC50 is greater, the one for 1 or the one for 2 ? I would appreciate it if you answered with the label of your choice.
1

1: Cn1cc(/C=C/C(=O)c2c(F)cccc2F)cc1/C=C/C(=O)NO
2: Cn1cc(/C=C/C(=O)c2ccsc2)cc1/C=C/C(=O)NO
Which value of Ratio IC50 is greater, the one for 1 or the one for 2 ? I would appreciate it if you answered with the label of your choice.
1
(1: 4.8, 2: 1.6)

P: Cn1cc(/C=C/C(=O)c2cc3ccccc3o2)cc1/C=C/C(=O)NO
Q: COc1cccc(C(=O)/C=C/c2cc(/C=C/C(=O)NO)n(C)c2)c1
Field: lower Ratio IC50 | Options: P / Q I would appreciate it if you answered with the label of your choice.
Q
(Q: 1.5, P: 4)

1: Cc1cccc(C(=O)/C=C/c2cc(/C=C/C(=O)NO)n(C)c2)c1
2: Cn1cc(/C=C/C(=O)c2ccc3c(c2)OCCO3)cc1/C=C/C(=O)NO
Which value of Ratio IC50 is greater, the one for 1 or the one for 2 ? I would appreciate it if you answered with the label of your choice.
1
